Recorded values, source the NIST ThermoML archive (doi:10.1016/j.jct.2009.11.014).

Provide the reported mass density of each item.
applied-conditions: 318.15 K; 4000 kPa; Liquid; vibrating tube
Answers are plain numbers, in kg/m3.

Use these answered entries as a reference point.
CCCCn1cc[n+](C)c1.F[B-](F)(F)F [1-butyl-3-methylimidazolium tetrafluoroborate] = 1189.42
CCCCCCCC[n+]1ccn(C)c1.F[B-](F)(F)F [1-methyl-3-octylimidazolium tetrafluoroborate] = 1092.91
CCCCCCn1cc[n+](C)c1.F[B-](F)(F)F [1-hexyl-3-methylimidazolium tetrafluoroborate] = 1133.74

Please examine the following record next.
Measured mass density of CCn1cc[n+](C)c1.F[B-](F)(F)F [1-ethyl-3-methylimidazolium tetrafluoroborate] : 1272.25
